system: SK-MEL-2 melanoma; assay: NCI-60 one-dose screen, 48 h; details: 10 µM unless noted
The panel holds about 83,000 compounds, 20% with a hit somewhere; the sample as a whole holds those more often. The source made the active and inactive calls. The calls were made as follows: active = growth percent below 10; inactive = the rest.
Outcome codes: active, inactive

>>> class_assignment("CCN1C(=O)N(CC)C2Nn3c(s/c(=C\\c4cccc([N+](=O)[O-])c4)c3=O)=NC21 (stereo unspecified)")
"inactive"
>>> class_assignment("CCCCCCCCCCN(CCCCCCCCCC)CC(=O)c1ccc2cc(Br)c3ccccc3c2c1")
"inactive"
>>> class_assignment("O=C(NCCc1ccc(O)c(O)c1)C12CC3CC(CC(C3)C1)C2")
"inactive"
>>> class_assignment("COc1ccc2[nH]c(O)c(C(=Nc3ccc(N(C)C(=O)CN4CCN(C)CC4)cc3)c3ccccc3)c2c1")
"inactive"
>>> class_assignment("CN(Cc1cnc2nc(N)nc(N)c2n1)c1ccc(C(=O)N[C@@H](CCc2nn[nH]n2)c2nn[nH]n2)cc1")
"inactive"
>>> class_assignment("O=c1c2cc(F)ccc2sc2c(Nc3cccnc3)nc3ccccc3c12")
"inactive"
>>> class_assignment("C=C1C(=O)O[C@H]2[C@H]1CC/C(COC(=O)C(=O)c1c[nH]c3ccc(OC)cc13)=C\\CC[C@@]1(C)O[C@@H]21")
"active"
>>> class_assignment("COc1ccc(-c2nc3sccn3c2-c2cc(-c3cc(OC)c(OC)c(OC)c3)on2)cc1")
"inactive"
>>> class_assignment("Cc1ccc(-c2c(-c3ccccc3)c(=O)oc3ccc(C)cc23)cc1")
"inactive"
>>> class_assignment("COc1cc(-c2nc(N3CCN(C)CC3)c3ccccc3n2)cc(OC)c1OC")
"inactive"
>>> class_assignment("Cc1cc(=O)[nH]c(N=Nc2c(O)[nH]c3ccccc23)n1")
"inactive"
>>> class_assignment("COc1ccc(N=Nc2ccc(O)c(=O)cc2)cc1")
"inactive"
>>> class_assignment("NC[C@H](O)c1ccc(O)c(O)c1")
"inactive"
>>> class_assignment("COc1ccc(-c2nc(SC(C)C)nc(NNC(N)=S)c2C#N)cc1")
"inactive"
>>> class_assignment("COc1ccc(CNC(=O)C(O)C(Cc2ccccc2)NC(=O)c2[nH]c3ccccc3c(=O)c2C)cc1OC (stereo unspecified)")
"inactive"
>>> class_assignment("C#CCOc1nc(C)cc(C)c1C#N")
"inactive"
>>> class_assignment("CC(=O)N1N=C(c2ccc(Nc3nc(Nc4ccc(F)cc4)nc(Nc4ccc(F)cc4)n3)cc2)CC1c1cccc([N+](=O)[O-])c1 (stereo unspecified)")
"inactive"
>>> class_assignment("COc1cccc(-c2nn(-c3ccccc3)cc2-c2ccnc(NCCNC(=O)c3ccccc3)c2)c1")
"inactive"
>>> class_assignment("Cc1ccc2[nH]c(=O)c3c(c2c1)OC(N)=C(C#N)C31c2cc(Br)ccc2-c2ccc(Br)cc21")
"inactive"
>>> class_assignment("c1ccc2cc3nc4cc5ccccc5cc4nc3cc2c1")
"inactive"
>>> class_assignment("Cc1ccc(/C=C2\\C(=O)N(C)c3ccc(S(=O)(=O)Nc4ccc(C(C)(C)C)cc4)cc32)s1")
"inactive"
>>> class_assignment("O=c1c2c3c(sc2nc(N/N=C/c2ccc(Br)cc2)n1Cc1ccccc1)CCCC3")
"inactive"
>>> class_assignment("COc1cc(C(=O)/C=C/c2c(C(F)(F)F)nc3sccn23)cc(OC)c1OC")
"inactive"
>>> class_assignment("COC(=O)c1c2c(c(C)[n+]([O-])c1C)C(=O)C(NCc1ccc(F)cc1)=CC2=O")
"inactive"
>>> class_assignment("Cc1ccc2nc(NC(=O)CSc3nc(-c4ccccc4)c(C#N)c(=O)n3Cc3ccccc3)sc2c1")
"inactive"
>>> class_assignment("Cc1cc(C)c(-c2c(C)cc(C)cc2CBr)c(CBr)c1")
"inactive"
>>> class_assignment("O=C(NCCNc1cc(-c2cn(-c3ccccc3)nc2-c2cccc(O)c2)ccn1)Nc1ccccc1")
"inactive"
>>> class_assignment("O=C(O)CN1C(=O)CCC1=O")
"inactive"
>>> class_assignment("COc1ccc(NC(=O)CSc2nnc(-c3cc(-c4ccc(S(N)(=O)=O)cc4)nc4ccccc34)n2-c2ccccc2)cc1")
"inactive"
>>> class_assignment("O=C(NCCCNc1cc(-c2cn(-c3ccccc3)nc2-c2cccc(O)c2)ccn1)c1ccccc1")
"inactive"
>>> class_assignment("N=C1C(c2nc(-c3ccc(Br)cc3)cs2)=C(O)CN1CC1CCCO1 (stereo unspecified)")
"inactive"

Data origin: PubChem BioAssay (NCI)
